Reported pIC50 values for the following compounds.
# system: Human immunodeficiency virus type 1 reverse transcriptase (Human immunodeficiency virus 1, UniProt Q72547, A502F)
# experiment: Inhibition of HIV1 group M subtype B reverse transcriptase p66 A502F mutant RNase H activity using 18-nucleotide 3'-fluorescein-labeled RNA/5'-[…]-labeled DNA hybrid as substrate after 1 hr by fluorescence assay
pIC50 here: minus log base 10 of the concentration, concentration in moles per litre.

Illustrative cases are given below, each with its answer.
Requested read-out: pIC50. Entry: CC(C)c1ccc(O)c(=O)c(O)c1
6.77

Could you share which pIC50 value was measured for CCOc1ccc(/C=C2\SC(=O)NC2=O)cc1OCc1ccc(Cl)c(Cl)c1 ?
4.57

Name the recorded pIC50 for CCOc1cc(/C=C2\SC(=S)N(c3ccccc3)C2=O)cc([N+](=O)[O-])c1O .
4.58

Could you now consider this next compound?
What does the record list as pIC50 for COc1cc(N2CCCC2)c(OC)cc1/C=C1/NC(=O)NC1=O ?
4.49

----------
# system: Human immunodeficiency virus type 1 reverse transcriptase (Human immunodeficiency virus 1, UniProt Q72547)
pIC50: −log10 of the molar value.
value_kind: pIC50

For NNC(=O)c1cccc(Cn2cc(Br)c([N+](=O)[O-])n2)c1 , what is its reported pIC50?
< 4.00

Find the recorded pIC50 belonging to CCOc1cc(/C=C2\SC(=S)N(c3ccccc3)C2=O)cc([N+](=O)[O-])c1O and report it.
4.89

Please look up its pIC50: CCOC(=O)C12CC(OC3CCCCC3)C1(c1ccccc1)NC(=O)C2=O (stereo unspecified)
< 4.00

Query: pIC50; subject: CCOc1ccc(/C=C2\SC(=O)NC2=O)cc1OCc1ccc(Cl)c(Cl)c1
5.29

Fill in the blank: the reported pIC50 of O=C(N/N=C\c1cc([N+](=O)[O-])c(O)cc1O)c1ccccc1O is ____.
4.30

Others:
Sample CCCc1cc2c(cc1/C=C1\NC(=O)NC1=O)OCO2 — what was its pIC50?
4.04

Quick one: pIC50 of O=C1NC(=O)/C(=C/c2ccc(Cl)c(Cl)c2)S1 ?
< 4.00

Reported pIC50 for O=C(CSc1nc2ccccc2o1)Nc1ncn[nH]1 : what is it?
< 4.00

Item under review: C[S+]([O-])CCC(NS(=O)(=O)c1ccccc1)C(=O)O (stereo unspecified) . Reported pIC50?
< 4.00

What does the record list as pIC50 for Cc1cc(/C=C2\NC(=O)NC2=O)cc(C)c1OCc1cccc([N+](=O)[O-])c1 ?
4.75

Form field: reported pIC50 of CCOc1ccc(/C=C2\NC(=O)NC2=O)c(Cl)c1OC
4.07

----------
# system: Human immunodeficiency virus type 1 reverse transcriptase (Human immunodeficiency virus 1) (UniProt Q72547)
# experiment: Inhibition of HIV1 reverse transcriptase RNase H activity using 18-nucleotide 3'-fluorescein-labeled RNA/5'-[…]-labeled DNA hybrid as substrate assessed as remaining activity at 100 uM after 1 hr by fluorescence assay relative to control
The threshold is 80%. Values of Activity beneath it are tagged yes; values meeting or exceeding it are tagged no.

Examples with answers:
Please let me know if CC(Oc1ccc(C(C)(C)C)cc1)C(=O)NN (stereo not drawn) shows Activity below 80%.
yes

Given the entry Cc1cccc(OCC(=O)NC(Cc2ccccc2)C(=O)O)c1 (stereo not drawn) , would its reported Activity be below 80%?
no

State whether 80% exceeds Activity recorded for O=C(O)CC1CSc2ccccc2NC1=O (stereo not drawn) .
yes

More entries:
Bench note: check whether COc1ccccc1/C=C/CN1CCNC(=O)C1CC(=O)O (stereo not drawn) shows Activity below 80%
no

Lab note: Activity threshold 80%. Does this compound come in strictly under it? COc1cc(/C=N/NC(=O)COc2cccc(C)c2)c(O)c([N+](=O)[O-])c1
yes

Dear colleague, could you confirm whether Activity of CCCCC(CC)CN1C(=O)C(O)=C(C(C)=O)C1c1ccco1 (stereo not drawn) falls below 80%? Thanks.
yes

Threshold test, Activity < 80%: CCN1C(=O)/C(=C/c2ccc(O)c([N+](=O)[O-])c2)SC1=S
yes

Activity strictly < 80% for this compound? COc1cc(NC(=O)C2CC(=O)N=C(N)S2)cc(OC)c1 (stereo not drawn)
yes

Hello, is Activity of the following compound strictly smaller than 80%? CCOc1cc(/C=C2\NC(=O)NC2=O)c(Cl)cc1OC
yes

Is the reported Activity for CCCOC(=O)CNc1n[nH]c(=O)[nH]c1=O strictly below 80%?
no

Lab log: compare recorded Activity with 80%; is it strictly lower for NNC(=O)c1cccc(Cn2cc(Br)c([N+](=O)[O-])n2)c1 ?
no

I'd appreciate it if you could check whether O=C(OCCOCn1cc(Br)c(=O)[nH]c1=O)c1ccccc1 has Activity smaller than 80%.
yes

Activity strictly < 80% for this compound? NC(=O)N(CCC(=O)O)c1ccc(Br)cc1
no

Regarding Cc1ccc(C2CC2C(=O)NN)cc1 (stereo not drawn) , kindly confirm whether its Activity is beneath 80%.
no

----------
# system: Human immunodeficiency virus type 1 reverse transcriptase (Human immunodeficiency virus 1) (UniProt Q72547)
# experiment: Inhibition of HIV1 reverse transcriptase RNase H activity using 18-nucleotide 3'-fluorescein-labeled RNA/5'-[…]-labeled DNA hybrid as substrate assessed as remaining activity at 100 uM after 1 hr by fluorescence assay relative to control
T if Activity is below 80%. F if not; exact matches included in F.

Example cases with answers are listed next.
Field: below-cutoff. Rule: recorded Activity strictly less than 80%. Subject: O=C(O)COc1ccc(/C=C2\NC(=O)NC2=O)cc1I
T

Input NNC(=O)C12CC3CC(C1)CC(n1cnc(Cl)n1)(C3)C2 ; condition: Activity strictly below 80%. Does it hold?
T

Say whether its Activity is strictly beneath 80%. Entry: O=C(CSc1nc2ccccc2o1)Nc1ncn[nH]1
F

Next item in the queue.
In plain terms, does COC(=O)c1c(-c2cccs2)csc1NC(=O)C1CC=CCC1C(=O)O (centres undefined) come in under 80% for Activity?
F

----------
# system: Human immunodeficiency virus type 1 reverse transcriptase (Human immunodeficiency virus 1)
# experiment: Inhibition of HIV1 reverse transcriptase RNase H activity using 18-nucleotide 3'-fluorescein-labeled RNA/5'-[…]-labeled DNA hybrid as substrate assessed as remaining activity at 100 uM after 1 hr by fluorescence assay relative to control
value_kind: Activity
Quick note: number first, unit second.

What value of Activity has been reported for the following molecule? O=C(O)C1Sc2[nH]c(=O)sc2C2c3ccccc3OC(=O)C12 (stereo not given)
80%

Others:
# input molecule: CCOC(=O)C12CC(OC3CCCCC3)C1(c1ccccc1)NC(=O)C2=O (stereo not given) ; wanted: its Activity
80.4%

Look up Activity: CSCCC(NS(=O)(=O)c1ccc2c(c1)NC(=O)C(C)O2)C(=O)O (stereo not given)
80.2%

Item under review: O=C1NC(=O)/C(=C/c2ccc(Cl)c(Cl)c2)S1 . Reported Activity?
80.5%

Record request: Activity value, item CC1=C(C(=O)O)N2C(=O)C(NC(=O)c3ccn(C)n3)C2SC1 (stereo not given)
80%

Reference source for all entries: ChEMBL document CHEMBL4261575
